The entries below are paired with their reported protein stability index.
B1: SCNN1D (parent)
chain: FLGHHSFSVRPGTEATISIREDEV

- Variants of: B1
- TEST_SUMMARY: protein stability index of a GFP-peptide fusion (GPS, HEK-293T) (PSI 1-6); higher = more stable;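 note: lentivirally expressed fusions sorted by FACS into six bins by GFP to DsRed ratio, PSI derived from sequencing read proportions per bin multiplied by bin number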
- TEST_SETTINGS: c terminus: a fixed tail appended

MUTATION_NAME	protein stability index
E14R	2.1
E14A	1.92
S6F	2.92
R20T	1.79
S18T	1.66
F1L	3.99
T16V	2.25
V9F	2.33
T13C	1.58
S18Q	1.79
H4I	2.64
H5W	3.19
I19C	1.58
E14C	1.65
R10M	2.03
R10E	2.94
T16I	2.29
A15F	2.62
T13I	1.44
P11W	1.97
F1H	4.49
G3R	2.09
T13L	2.71
A15P	2.04
G3I	1.59
V9S	2.12
S18I	1.96
D22F	1.73
F7Q	3.98
H4C	1.39
F7N	4.38
R10N	1.53
E23H	2.32
P11T	1.59
S8L	1.65
T13Q	1.97
A15I	1.95
L2V	2.64
T16Q	2.8
H4V	1.77
I19H	1.9
I17C	1.96
E14H	2.11
E21W	2.45
E21A	2.25
V9R	3.8
H5S	1.75
R20P	1.79
T16H	1.87
S8H	2.12
E21I	3.27
V24E	2.27
L2Y	3.44
E14Y	1.19
H4R	2.68
R10H	2.3
E14M	1.25
E23W	3.12
V24K	1.93
T16G	2.1
F7C	3.6
G12C	2.24
H4M	1.58
G3H	2.71
H5D	2.02
A15R	1.88
P11A	1.53
P11Y	1.99
I19D	1.92
P11F	1.47
A15S	2.63
E14D	1.13
P11E	2.14
R10W	1.63
V24Q	2.25
V9T	2.29
F1G	4.59
